# ASSAY NAME: physchem
# SETTINGS: pH 6.8, aqueous buffer, kinetic from dmso stock, Solubility (pH 6.8)
READOUT LABEL: solubility at 24 h (µg/mL)

A = COc1cc(COc2c(C)cccc2-c2csc(N3CC[C@@H](C(=O)O)[C@@H](OC)C3)n2)cc2c1CN(C1CCOCC1)CC2
B = COC[C@H]1N(c2cccc(-c3cccc(C)c3OCc3ccc4c(c3F)CCN(C3CCOCC3)CC4)n2)C[C@@H]2C[C@@]21C(=O)O
Req: Returns: the label, A or B , whose recorded solubility at 24 h is the lower number. Please indicate the selected item by its label.
Resp: B

I = CO[C@H]1CN(c2nc(-c3cccc(C)c3OCc3ccc4c(c3C)CCN(C3COC3)CC4)cs2)CC[C@H]1C(=O)O
II = COC[C@H]1N(c2cccc(-c3cc(C)ccc3OCc3ccc4c(c3C)CCN(C3CCOCC3)C4)n2)C[C@@H]2C[C@@]21C(=O)O
Req: Which entry has a larger number for solubility at 24 h, I or II ? Please indicate the selected item by its label.
Resp: II
(II: 134 µg/mL, I: 71.7 µg/mL)

A = CCO[C@H]1CN(c2cccc(-c3cccc(Cl)c3OCc3cc(C)c4c(c3)CCN(C3CCOCC3)C4)n2)CC[C@H]1C(=O)O
B = CCO[C@H]1CN(c2cccc(-c3cc(C)ccc3OCc3cc4c(c(OC)c3)CN(C3CCOCC3)CC4)n2)CC[C@H]1C(=O)O
Req: Returns: the label, A or B , whose recorded solubility at 24 h is the lower number. Please indicate the selected item by its label.
Resp: A
(A: 57.1 µg/mL, B: 119 µg/mL)

I = COC[C@H]1N(c2nc(-c3cccc(C)c3OCc3ccc4c(c3C)CCN(C3CCC3)C4)cs2)C[C@@H]2C[C@@]21C(=O)O
II = CCOC[C@@H]1N(c2cccc(-c3cccc(C)c3OCc3cc(C)c4c(c3)CCN(C3CCOCC3)C4)n2)C[C@@H]2C[C@@]21C(=O)O
III = Cc1cc(COc2c(C)cccc2-c2cccc(N3CC[C@@]4(C(=O)O)C[C@H]4C3)n2)cc2c1CN(C1CCOCC1)CC2
Req: List items by solubility at 24 h in falling order. Order the labels as requested and list them.
Resp: II, I, III
(II: 142 µg/mL, I: 75 µg/mL, III: 51 µg/mL)

1 = CO[C@H]1CN(c2cccc(-c3cccc(C)c3OCc3ccc4c(c3C)CCN(C3CCOCC3)CC4)n2)CC[C@H]1C(=O)O
2 = Cc1ccc(OCc2ccc3c(c2C)CCN(C2COC2)C3)c(-c2cccc(N3CC[C@@]4(C(=O)O)C[C@H]4C3)n2)c1
Req: Which entry has a larger number for solubility at 24 h, 1 or 2 ? Please indicate the selected item by its label.
Resp: 1
